All values here come from ChEMBL document CHEMBL4265973.

- test-details: Cytotoxicity against mouse J774 cells assessed as cell viability at 10 uM after 24 hrs by MTT assay relative to control
- Format: cell-based
- measurement-setup: J774 cells, read-out: Activity
// values below are reported viability at 24 h, 10 µM
Unit % implied. Number only.

Sample records with viability at 24 h, 10 µM:
| chemical-structure | assay-result |
| --- | --- |
| CCCCCCCCCCCO[C@@H]1[C@@H](O)[C@H](O[C@H]2O[C@H](CN)[C@@H](O)[C@H](O)[C@H]2N)[C@@H](N)C[C@H]1N | 74.7 |
| CCCCCCCCCCCO[C@@H]1[C@@H](N)[C@@H](O[C@H]2[C@H](O)[C@@H](OCCCCCCCCCCC)[C@H](N)C[C@@H]2N)O[C@H](CN)[C@H]1O | 81.7 |
| NC[C@H]1O[C@H](O[C@H]2[C@H](O)[C@@H](OCCCc3ccc4ccccc4c3)[C@H](N)C[C@@H]2N)[C@H](N)[C@@H](OCCCc2ccc3ccccc3c2)[C@@H]1O | 91.1 |
| CCCCCCCCCCCO[C@@H]1[C@@H](N)[C@@H](O[C@H]2[C@H](O)[C@@H](OCCCCCCC)[C@H](N)C[C@@H]2N)O[C@H](CN)[C@H]1O | 88.4 |
| CCCCCCCO[C@@H]1[C@@H](N)[C@@H](O[C@H]2[C@H](O)[C@@H](O)[C@H](N)C[C@@H]2N)O[C@H](CN)[C@H]1O | 77.5 |

The compound listed as CCCCCCCCCCCO[C@@H]1[C@@H](O)[C@H](O[C@H]2O[C@H](CN)[C@@H](O)[C@H](OCCCCCCC)[C@H]2N)[C@@H](N)C[C@H]1N has a reported viability at 24 h, 10 µM of 82.9
